Molecular target: 5-HT1A (Homo sapiens)
Sequence (P08908 whole entry, species assumed): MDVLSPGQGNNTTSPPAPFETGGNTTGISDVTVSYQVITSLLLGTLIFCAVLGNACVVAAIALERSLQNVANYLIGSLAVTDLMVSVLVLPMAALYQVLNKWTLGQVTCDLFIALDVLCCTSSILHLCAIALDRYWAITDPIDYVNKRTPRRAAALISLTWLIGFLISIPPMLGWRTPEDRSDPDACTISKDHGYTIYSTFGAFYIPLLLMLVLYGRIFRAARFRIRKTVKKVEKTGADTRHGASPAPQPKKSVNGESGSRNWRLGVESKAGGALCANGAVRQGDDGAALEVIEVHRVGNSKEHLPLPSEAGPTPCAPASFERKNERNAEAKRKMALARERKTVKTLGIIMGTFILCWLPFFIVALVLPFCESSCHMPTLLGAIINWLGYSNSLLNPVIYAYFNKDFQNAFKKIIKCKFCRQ
Experiment: 5-HT1A receptor binding, [3H]DPAT
Conditions: radioligand [3H]DPAT
property: Ki (nM)
Give bare numbers, in nM.

[
  {
    "compound": "Fc1ccc2[nH]cc(C3=CCN(CCOc4cccc5c4OCCO5)CC3)c2c1 [Example 5]",
    "unitsText": "nM",
    "Ki": 83.3
  }
]

List Ki for every entry below, keeping the order given.
1. COc1ccccc1OCCN1CCC(Cc2c[nH]c3ccc(F)cc23)CC1 [Example 1]
2. C1=C(c2c[nH]c3ccccc23)CCN(CCOc2cccc3c2OCCO3)C1 [Example 4]
3. Fc1ccc2[nH]cc(CC3CCN(CCOc4cccc5c4OCCO5)CC3)c2c1 [Example 2]

a:
1. 180
2. 78.3
3. 168

---

Structures can show the parent of a compound that is named as a salt.
Would you mind telling me the reported melting point of each entry?

As a guide, the following entries are already answered.
[
  {
    "compound": "C1=C(c2c[nH]c3ccccc23)CCN(CCOc2cccc3c2OCCO3)C1 (as salt: oxalate) [Example 4]",
    "property": "melting point",
    "result": "85 to 88 °C"
  },
  {
    "compound": "Fc1ccc2[nH]cc(CC3CCN(CCOc4ccc5c(c4)CCC5)CC3)c2c1 (as salt: hydrochloride) (hydrate or solvate) [Example 3]",
    "property": "melting point",
    "result": "150 to 152 °C"
  },
  {
    "compound": "COc1ccccc1OCCN1CCC(Cc2c[nH]c3ccc(F)cc23)CC1 (as salt: oxalate) (hydrate or solvate) [Example 1]",
    "property": "melting point",
    "result": "91 °C"
  },
  {
    "compound": "Fc1ccc2[nH]cc(C3=CCN(CCOc4cccc5c4OCCO5)CC3)c2c1 (as salt: oxalate) [Example 5]",
    "property": "melting point",
    "result": "195 to 198 °C"
  }
]

Shifting focus to the compound that follows.
q: Give me measured melting point, please, for this compound: Fc1ccc2[nH]cc(CC3CCN(CCOc4cccc5c4OCCO5)CC3)c2c1 (as salt: fumarate) (hydrate or solvate) [Example 2]
a: 157 to 159 °C

---

Biological target: Serotonin Transporter (Homo sapiens, UniProt P31645)
Sequence (P31645 whole entry): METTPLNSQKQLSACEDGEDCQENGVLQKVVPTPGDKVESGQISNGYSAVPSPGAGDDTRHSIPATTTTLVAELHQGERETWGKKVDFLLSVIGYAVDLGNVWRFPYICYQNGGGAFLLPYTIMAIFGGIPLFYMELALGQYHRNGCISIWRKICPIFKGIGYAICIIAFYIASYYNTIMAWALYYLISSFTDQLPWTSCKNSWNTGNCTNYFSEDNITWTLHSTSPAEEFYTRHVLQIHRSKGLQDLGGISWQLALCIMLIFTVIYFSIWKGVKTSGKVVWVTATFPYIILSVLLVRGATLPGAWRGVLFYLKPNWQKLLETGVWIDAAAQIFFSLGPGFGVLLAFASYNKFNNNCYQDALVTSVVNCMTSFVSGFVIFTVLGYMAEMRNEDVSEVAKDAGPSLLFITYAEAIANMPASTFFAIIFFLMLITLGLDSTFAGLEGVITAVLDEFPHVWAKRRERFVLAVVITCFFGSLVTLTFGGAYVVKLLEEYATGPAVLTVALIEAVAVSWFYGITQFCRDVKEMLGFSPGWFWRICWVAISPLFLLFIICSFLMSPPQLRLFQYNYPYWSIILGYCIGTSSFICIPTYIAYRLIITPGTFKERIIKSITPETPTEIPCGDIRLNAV
Assay: Serotonin transporter binding, [3H]paroxetine
Conditions: radioligand [3H]paroxetine
# if measured Ki < 1 nM: satisfied  # else: not satisfied

Reference set (4 entries):
[
  {
    "smiles": "Fc1ccc2[nH]cc(CC3CCN(CCOc4cccc5c4OCCO5)CC3)c2c1",
    "groupLabel": "satisfied"
  },
  {
    "smiles": "C1=C(c2c[nH]c3ccccc23)CCN(CCOc2cccc3c2OCCO3)C1",
    "groupLabel": "satisfied"
  },
  {
    "smiles": "COc1ccccc1OCCN1CCC(Cc2c[nH]c3ccc(F)cc23)CC1",
    "groupLabel": "satisfied"
  },
  {
    "smiles": "Fc1ccc2[nH]cc(CC3CCN(CCOc4ccc5c(c4)CCC5)CC3)c2c1",
    "groupLabel": "not satisfied"
  }
]

Could you now look at the following compound, please?
q: Record `Fc1ccc2[nH]cc(C3=CCN(CCOc4cccc5c4OCCO5)CC3)c2c1` : is its Ki strictly below 1 nM?
a: not satisfied
